Each recorded value in this set is attributed to the RNAGym collection of RNA variant scans (doi:10.7554/elife.80360).

B1: Twister Ribozyme (parent)
chain: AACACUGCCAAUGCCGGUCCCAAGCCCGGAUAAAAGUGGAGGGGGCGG

Variants of: B1
Assay: self-cleavage, relative activity (ratio to wild type); higher = more cleavage; co-transcriptional
Give Condition met when the value for self-cleavage is at least 0.2. Give Condition not met when it is less.

Before answering, review these 8 worked examples.
| mutant designation | class assignment |
| --- | --- |
| A33G G42U | Condition not met |
| C19G G38A | Condition not met |
| C9A A40U | Condition not met |
| A22C A32U | Condition met |
| C20A C21G | Condition not met |
| A11G C21A | Condition not met |
| C3U A23G | Condition not met |
| G7U C15U | Condition not met |

Request: Does the variant A1G G44U have recorded self-cleavage that is 0.2 or more?
Response: Condition met

Request: Does the variant A23U A40U have recorded self-cleavage that is 0.2 or more?
Response: Condition not met
